// data source = paper PMC5501724

Listing of recorded percent of parent by entry.
B1: HA-HD-PTP_(Bro1-CC) wild-type, expressed in cells [human] / endogenous endofin [human (endogenous in HEK293)] (parent complex)
chain 1: MEAVPRMPMIWLDLKEAGDFHFQPAVKKFVLKNYGENPEAYNEELKKLELLRQNAVRVPRDFEGCSVLRKYLGQLHYLQSRVPMGSGQEAAVPVTWTEIFSGKSVAHEDIKYEQACILYNLGALHSMLGAMDKRVSEEGMKVSCTHFQCAAGAFAYLREHFPQAYSVDMSRQILTLNVNLMLGQAQECLLEKSMLDNRKSFLVARISAQVVDYYKEACRALENPDTASLLGRIQKDWKKLVQMKIYYFAAVAHLHMGKQAEEQQKFGERVAYFQSALDKLNEAIKLAKGQPDTVQDALRFTMDVIGGKYNSAKKDNDFIYHEAVPALDTLQPVKGAPLVKPLPVNPTDPAVTGPDIFAKLVPMAAHEASSLYSEEKAKLLREMMAKIEDKNEVLDQFMDSMQLDPETVDNLDAYSHIPPQLMEKCAALSVRPDTVRNLVQSMQVLSGVFTDVEASLKDIRDLLEEDELLEQKFQEAVGQAGAISITSKAELAEVRREWAKYMEVHEKASFTNSELHRAMNLHVGNLRLLSGPLDQVRAALPTPALSPEDKAVLQNLKRILAKVQEMRDQRVSLEQQLRELIQKDDITASLVTTDHSEMKKLFEEQLKKYDQLKVYLEQNLAAQDRVLCALTEANVQYAAVRRVLSDLDQKWNSTLQTLVASYEAYEDLMKKSQEGRDFYADLESKVAALLERTQSTCQAREAARQQLLDRELKK
chain 2: MDSYFKAAVSDLDKLLDDFEQNPDEQDYLQDVQNAYDSNHCSVSSELASSQRTSLLPKDQECVNSCASSETSYGTNESSLNEKTLKGLTSIQNEKNVTGLDLLSSVDGGTSDEIQPLYMGRCSKPICDLISDMGNLVHATNSEEDIKKLLPDDFKSNADSLIGLDLSSVSDTPCVSSTDHDSDTVREQQNDISSELQNREIGGIKELGIKVDTTLSDSYNYSGTENLKDKKIFNQLESIVDFNMSSALTRQSSKMFHAKDKLQHKSQPCGLLKDVGLVKEEVDVAVITAAECLKEEGKTSALTCSLPKNEDLCLNDSNSRDENFKLPDFSFQEDKTVIKQSAQEDSKSLDLKDNDVIQDSSSALHVSSKDVPSSLSCLPASGSMCGSLIESKARGDFLPQHEHKDNIQDAVTIHEEIQNSVVLGGEPFKENDLLKQEKCKSILLQSLIEGMEDRKIDPDQTVIRAESLDGGDTSSTVVESQEGLSGTHVPESSDCCEGFINTFSSNDMDGQDLDYFNIDEGAKSGPLISDAELDAFLTEQYLQTTNIKSFEENVNDSKSQMNQIDMKGLDDGNINNIYFNAEAGAIGESHGINIICEIVDKQNTIENGLSLGEKSTIPVQQGLPTSKSEITNQLSVSDINSQSVGGARPKQLFSLPSRTRSSKDLNKPDVPDTIESEPSTADTVVPITCAIDSTADPQVSFNSNYIDIESNSEGGSSFVTANEDSVPENTCKEGLVLGQKQPTWVPDSEAPNCMNCQVKFTFTKRRHHCRACGKVFCGVCCNRKCKLQYLEKEARVCVVCYETISKAQAFERMMSPTGSNLKSNHSDECTTVQPPQENQTSSIPSPATLPVSALKQPGVEGLCSKEQKRVWFADGILPNGEVADTTKLSSGSKRCSEDFSPLSPDVPMTVNTVDHSHSTTVEKPNNETGDITRNEIIQSPISQVPSVEKLSMNTGNEGLPTSGSFTLDDDVFAETEEPSSPTGVLVNSNLPIASISDYRLLCDINKYVCNKISLLPNDEDSLPPLLVASGEKGSVPVVEEHPSHEQIILLLEGESFHPVTFVLNANLLVNVKFIFYSSDKYWYFSTNGLHGLGQAEIIILLLCLPNEDTIPKDIFRLFITIYKDALKGKYIENLDNITFTESFLSSKDHGGFLFITPTFQKLDDLSLPSNPFLCGILIQKLEIPWAKVFPMRLMLRLGAEYKAYPAPLTSIRGRKPLFGEIGHTIMNLLVDLRNYQYTLHNIDQLLIHMEMGKSCIKIPRKKYSDVMKVLNSSNEHVISIGASFSTEADSHLVCIQNDGIYETQANSATGHPRKVTGASFVVFNGALKTSSGFLAKSSIVEDGLMVQITPETMNGLRLALREQKDFKITCGKVDAVDLREYVDICWVDAEEKGNKGVISSVDGISLQGFPSEKIKLEADFETDEKIVKCTEVFYFLKDQDLSILSTSYQFAKEIAMACSAALCPHLKTLKSNGMNKIGLRVSIDTDMVEFQAGSEGQLLPQHYLNDLDSALIPVIHGGTSNSSLPLEIELVFFIIEHLF

Variants of: B1
Assay: anti-HA immunoprecipitation from cells, anti-endofin immunoblot, quantitation; four independent experiments (mean ± SD); parent: 100; read off a plot

Look over these answered cases.
| variant_key | result_value |
| --- | --- |
| chain 1 H125A | ~23 % of WT |
| chain 1 L202D | ~9.5 % of WT |
| chain 1 R198M | ~59 % of WT |
| chain 1 T145K | ~13 % of WT |
| chain 1 F62E | ~30 % of WT |

# next variant below
Lookup: Data request, read-out percent of parent, for chain 1 R69L
Found: ~68 % of WT
